Provenance of the data: patent US20240082211A1

target: human sEH (Homo sapiens); construct: purchased Cayman Chemical; test: sEH enzyme kinetics (PHOME hydrolysis, Michaelis-Menten/Dixon analysis); type: biochemical; conditions: human sEH, PHOME
Sequence (P34913 whole entry): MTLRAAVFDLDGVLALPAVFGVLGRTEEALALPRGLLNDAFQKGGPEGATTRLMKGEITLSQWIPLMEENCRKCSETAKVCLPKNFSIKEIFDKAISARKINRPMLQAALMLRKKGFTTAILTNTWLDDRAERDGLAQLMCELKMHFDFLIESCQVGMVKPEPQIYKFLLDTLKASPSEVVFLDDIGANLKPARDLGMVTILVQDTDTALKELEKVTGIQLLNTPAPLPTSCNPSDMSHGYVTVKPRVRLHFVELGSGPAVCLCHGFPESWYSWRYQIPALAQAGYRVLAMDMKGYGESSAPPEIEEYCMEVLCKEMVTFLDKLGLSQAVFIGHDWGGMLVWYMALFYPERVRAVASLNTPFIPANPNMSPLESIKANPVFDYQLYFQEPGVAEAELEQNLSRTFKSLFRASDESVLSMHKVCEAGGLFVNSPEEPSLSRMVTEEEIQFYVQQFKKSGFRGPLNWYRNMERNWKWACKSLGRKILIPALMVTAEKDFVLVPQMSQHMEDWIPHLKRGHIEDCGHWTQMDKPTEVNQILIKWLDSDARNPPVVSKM
Measurement Name: pKi
Give bare numbers, as −log10 of the molar value.

Quote pKi reported for COc1ccc(CC2COc3cc(OC)c(OC)c(OC)c3C2=O)cc1OC(=O)[C@H](Cc1ccccc1)NC(=O)OC(C)(C)C (stereo partly shown) [SH-11037] please.
5.76
